Values compiled from a melting point compilation (Tetko et al.; mined from patent text by program, amines drawn as free bases though some values may be those of a salt).

Please respond with reported melting point for every item in the list.

Please fill in: melting point reported for COc1ccccc1-c1ccc(C[C@H](NC(=O)c2c(Cl)cccc2Cl)C(=O)O)cc1OC = 100 to 102 °C

Note to self: melting point recorded for CCOC(=O)c1cc(NS(=O)(=O)c2ccc(Cl)nc2)ccc1Oc1cncc(Cl)c1 was 166 to 168 °C

Briefly, melting point measured for O=C(Nc1cc(Cl)cc(Cl)c1)c1cc(F)ccc1O : 258 to 260 °C

Query CC(C)(Oc1cccc(OCCCc2cn(-c3ccc(C(F)(F)F)cn3)nc2-c2ccccc2)c1)C(=O)O yields melting point of 141 to 142 °C

melting point in this record for Nc1c(I)c(-c2ccccc2)nn1-c1c(Cl)cc(C(F)(F)F)cc1Cl : 162 to 164 °C

Per the records, this molecule ( N#Cc1ccccc1-c1nc2ncccc2o1 ) has melting point equal to 166 to 167 °C

The recorded melting point for COC(=O)C1=NNC(C)=C(C(=O)OC)C1c1ccccc1C(F)(F)F (centres undefined) is 205 °C

The molecule identified as O=C(Cn1c(-c2ccc(Cl)cc2)nc2cccnc21)NC1CCCCC1 registered its melting point at 240 to 241 °C

The molecule listed as COc1ccccc1CN1CCN(CCN2CCC(O)(c3ccccc3)CC2)C(c2ccccc2)C1 (centres undefined) shows melting point equal to 63 to 65 °C

Just so you know, measured melting point for [N-]=[N+]=N[C@@H]1CN2C(=O)N(c3cc(Cl)nc(Cl)c3)C(=O)[C@@]2(Cc2ccc(OC(F)(F)F)cc2)C1 came out at 140 °C

The molecule CCOC(=O)CCCCN1CCc2ccc(NS(=O)(=O)c3ccccc3)cc2C1 showed melting point equal to 120 to 121 °C

For reference, reported melting point for CN1C[C@@H](C(=O)OCc2ccccc2)N(C(=O)OCc2ccccc2)C1=O stands at 120 to 122 °C

melting point recorded for this molecule, CNC(=O)C(Cc1ccc(OC)cc1)NC(=O)Nc1n[nH]c(=S)s1 (centres undefined) , is 232 to 233 °C

Short answer for Cc1oc(-c2ccccc2)nc1CCOc1ccc(CC(F)(C(=O)NS(C)(=O)=O)c2ccccc2)cc1 (centres undefined) : melting point was 118 to 120 °C

Value of measured melting point for the entry COC(=O)c1cc(-c2c(Br)c(C(F)(F)F)n(C)c2Br)c(F)cc1Cl : 97 °C

Reported melting point for COc1nc(C)cc(C(=O)O)n1 was 161 to 163 °C

The molecule listed as CCN(CC)Cc1ccc2cc(COc3cccc4c3CN(C3CCC(=O)NC3=O)C4=O)sc2c1 (centres undefined) has a reported melting point of 190 to 192 °C

// melting point value for Cc1cc(C)c2c(n1)CC(c1ccccc1C)CC2=O (centres undefined) : 106 to 107 °C

Short answer for O=C(NC1CCOc2cc(C(=O)O)ccc21)OCc1ccccc1 (centres undefined) : melting point was 227 to 228 °C
